Type: physicochemical
Set-up: key: 1 = fibrils present; 0 non-fibrillar structures
Conditions: TEM, 1 mg/mL, uranyl acetate stain, qualitative
Protocol: For ATR FT–IR spectroscopy measurements, 200 µL of the respective 1 mg/mL PNF solution was lyophilized and the resulting powder used for measurement. All spectra were recorded on a Bruker Tensor 27 spectrometer with a diamond crystal as ATR element (PIKE MiracleTM, spectral resolution 2 cm^-1). Every sample was measured with 64 scans. Data were analyzed with OriginLab software and calculation of β–sheet content was conducted according to a previous report. TEM. […]
Exercise: for every item that follows, state its recorded Fibril / Fibril Formation.
Numbers only.

substance	measure	value measured
CKIKQIIRGD	Fibril / Fibril Formation	0

I have 3 substances here; please give me Fibril / Fibril Formation for each one.
1. KIKIQINMWQRGD
2. RGDKIRGDKI
3. PPFHPPPFHP

[A]
1: 0; 2: 0; 3: 0

Parameters: items (list). Returns: Fibril / Fibril Formation for each item.
1. CKFKFQFNM
2. KIWIWIW
3. KIKIKIKIYYYY
4. KLKLTLT
5. CKIKQII
6. KAKAQANMWQ
7. CKIKQIINM

[A]
[1, 1, 0, 1, 1, 0, 1]
